# MEASURED TARGET: CDK2/Cyclin E1 (Homo sapiens)
# ASSAY INFO: ADP-Glo Luminescent Kinase Assay (CDK2/E1-37C)
# Type: biochemical
# PARTICULARS: 0.18 nM CDK2/Cyclin E1, 100 μM ATP, Histone H1, 37° C.; read-out: ADPGLO (CDK2/E1-37C): IC50
For each record, write down the corresponding IC50.

Worked cases, answers included:
MOLECULE	IC50
O=C(O)c1c(/C=C/CC2CN(C(=O)c3cnn(Cc4ccc(F)cc4)c3)CC23CN(C(=O)C2(C(F)(F)F)CC2)C3)cccc1C1CCC(F)(F)CC1 (stereo not shown) [I′-46]	500 to 5000 nM
CC1(C(=O)N2CC3(CN(C(=O)c4cnn(Cc5ccc(F)cc5)c4)C[C@H]3COCc3cccc(C4CCC(C(F)(F)F)CC4)c3C(=O)O)C2)CCO1 (stereo partly shown) [Compound I-93]	500 to 5000 nM
NC(=O)c1c(COC[C@@H]2CN(c3cc(F)c(F)c4ncsc34)CC23CN(C(=O)C2(C(F)(F)F)CC2)C3)cccc1C1CCC(F)(F)CC1 [I′-33]	≤ 500 nM

Bench note: what IC50 did O=C(O)c1ccc(C2CCC(C(F)(F)F)CC2)cc1COC[C@@H]1CN(C(=O)c2cnn(Cc3ccc(F)cc3)c2)CC12CN(C(=O)C1(C(F)(F)F)CC1)C2 (stereo partly shown) [Compound I-111] show?
500 to 5000 nM

###

# MEASURED TARGET: CDK2/Cyclin E1 (Homo sapiens)
# ASSAY INFO: ADP-Glo Luminescent Kinase Assay (CDK2/E1-37C)
# Format: biochemical
# PARTICULARS: 0.18 nM CDK2/Cyclin E1, 100 μM ATP, Histone H1, 37° C.; read-out: ADPGLO (CDK2/E1-37C): IC50
pIC50: −log10 of the molar value.
Exercise: state measured pIC50 for each of the compounds provided.

Can you give me pIC50 for all of these, one by one?
1. O=C(O)c1ccccc1Cn1cc(C(=O)N2CC(COCc3cccc(C4CCC(C(F)(F)F)CC4)c3OC(F)F)C3(C2)CN(C(=O)C2(C(F)(F)F)CC2)C3)cn1 (centres unmarked)
2. O=C(O)c1c(O)cc(COCC2CN(C(=O)c3cnn(Cc4ccc(C(F)(F)F)cc4)c3)CC23CN(C(=O)C2(C(F)(F)F)CC2)C3)cc1C1CCC(F)(F)CC1 (centres unmarked)
3. CC(C)C(=O)N1CC2(CN(C(=O)c3cnn(Cc4ccc(F)cc4)c3)C[C@H]2COCc2cccc(C3CCC(F)(F)CC3)c2C(=O)O)C1
4. CC1(C)C[C@@H]1C(=O)N1CC2(C1)CN(c1cc(F)c(F)c3ncsc13)C[C@H]2COCc1cccc(C2CCC(F)(F)CC2)c1C(=O)O
5. CC(C)(C(=O)N1CC2(CN(C(=O)c3cnn(Cc4cc(F)c(F)cc4F)c3)C[C@H]2COCc2cccc(C3CCC(F)(F)CC3)c2C(=O)O)C1)C(F)(F)F
6. CC(C)(C(=O)N1CC2(CN(C(=O)c3cnn(Cc4ccc(F)cc4)c3)C[C@H]2COCc2cccc(C3=CCCC3)c2C(=O)O)C1)C(F)(F)F

1: ≥ 6.30; 2: 5.00 to 5.30; 3: ≥ 6.30; 4: ≥ 6.30; 5: ≥ 6.30; 6: ≥ 6.30

Provide pIC50 for all items below, preserving their order.
1. O=C(O)c1ccccc1-c1c(COC[C@@H]2CN(C(=O)c3cnn(Cc4ccc(F)cc4)c3)CC23CN(C(=O)C2(C(F)(F)F)CC2)C3)cccc1C1CCC(C(F)(F)F)CC1 (stereo in doubt)
2. O=C(O)c1c(COC[C@@H]2CN(C(=O)c3cnn(Cc4ccc(Cl)cc4F)c3)CC23CN(C(=O)C2(C(F)(F)F)CC2)C3)cccc1C1CCC(C(F)(F)F)CC1 (stereo in doubt)
3. CC1(C)C[C@@H]1C(=O)N1CC2(CN(C(=O)c3cnn(Cc4ccc(F)cc4)c3)CC2COCc2cccc(C3CCC4(CCC4)CC3)c2C(=O)O)C1 (some centres unmarked)
4. O=C(O)c1c(COCC2CN(C(=O)c3cnn(Cc4ccc(C(F)(F)F)cc4)c3)CC23CN(C(=O)C2(C(F)(F)F)CC2)C3)cccc1C1CCC(C(F)(F)F)CC1 (centres unmarked)
5. O=C(c1cnn(Cc2ccc(F)cc2)c1)N1CC(COCc2cccc(C3CCC(F)(F)CC3)c2C(=O)C(F)(F)F)C2(C1)CN(C(=O)C1(C(F)(F)F)CC1)C2 (centres unmarked)

≥ 6.30
≥ 6.30
≥ 6.30
5.00 to 5.30
< 5.00

This collection of values is drawn from patent US20260034123A1.
